List of 5-HT2C % Act @ Max Dose values.
- study-system: human 5-HT2C receptor (Homo sapiens (Human))
- Sequence (P28335 33-458 limits assumed): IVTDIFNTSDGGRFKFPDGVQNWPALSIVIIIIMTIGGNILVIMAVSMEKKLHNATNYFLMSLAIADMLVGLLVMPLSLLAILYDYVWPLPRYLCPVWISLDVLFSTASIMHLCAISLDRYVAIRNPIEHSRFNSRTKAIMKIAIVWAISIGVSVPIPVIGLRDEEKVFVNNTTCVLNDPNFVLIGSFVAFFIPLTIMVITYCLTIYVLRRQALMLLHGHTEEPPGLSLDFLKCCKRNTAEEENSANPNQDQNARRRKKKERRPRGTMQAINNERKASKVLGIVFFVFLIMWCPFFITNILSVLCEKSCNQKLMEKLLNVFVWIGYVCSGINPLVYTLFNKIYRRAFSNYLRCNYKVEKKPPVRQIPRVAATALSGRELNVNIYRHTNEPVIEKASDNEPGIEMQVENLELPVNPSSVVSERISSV
- Format: cell-based
- run-parameters: Ca^2+ flux
Respond with the bare value in %.

CCCN1C[C@H](C(=O)N2[C@@H](C)C[C@@H]2C)C=C2c3cccc4[nH]cc(c34)C[C@H]21 [Compound 4] :: 110.845
CCCN1C[C@H](C(=O)NC(CC)CC)C=C2c3cccc4[nH]cc(c34)C[C@H]21 [Compound 6] :: 116.77
CC[C@@H](C)NC(=O)[C@H]1C=C2c3cccc4[nH]cc(c34)C[C@H]2N(C)C1 [Int8a] :: 93.73

Req: Checklist item: 5-HT2C % Act @ Max Dose tested on human 5-HT2C receptor (Homo sapiens (Human)), entry CCN(CC)C(=O)[C@@H]1C=C2c3cccc4[nH]cc(c34)C[C@H]2N(CCc2ccccc2OC)C1 [Compound 11] , value?
Resp: 107.89

Req: Request body: readout 5-HT2C % Act @ Max Dose, system human 5-HT2C receptor (Homo sapiens (Human)), query CCC[C@@H](C)NC(=O)[C@@H]1C=C2c3cccc4[nH]cc(c34)C[C@H]2N(C)C1 [Int17] . Return the value.
Resp: 102.19

Req: Recorded 5-HT2C % Act @ Max Dose for CCCN1C[C@H](C(=O)N[C@H](C)CC)C=C2c3cccc4[nH]cc(c34)C[C@H]21 [Compound 3] with human 5-HT2C receptor (Homo sapiens (Human)), please?
Resp: 119.49

Req: Please provide the recorded 5-HT2C % Act @ Max Dose for CCC(CC)NC(=O)[C@H]1C=C2c3cccc4[nH]cc(c34)C[C@H]2N(C)C1 [Int14a] , tested on human 5-HT2C receptor (Homo sapiens (Human)).
Resp: 119.28

Req: Give recorded 5-HT2C % Act @ Max Dose with human 5-HT2C receptor (Homo sapiens (Human)) for the following molecule: CCC[C@@H](C)NC(=O)[C@H]1C=C2c3cccc4[nH]cc(c34)C[C@H]2N(C)C1 [Int17a]
Resp: 112.06

Req: Reported 5-HT2C % Act @ Max Dose for human 5-HT2C receptor (Homo sapiens (Human)), given CCC(CC)NC(=O)[C@@H]1C=C2c3cccc4[nH]cc(c34)C[C@H]2N(C)C1 [Int14] ?
Resp: 99.149

Req: Request: 5-HT2C % Act @ Max Dose, test system human 5-HT2C receptor (Homo sapiens (Human)), entry C=CCN1C[C@H](C(=O)N[C@H](C)CC)C=C2c3cccc4[nH]cc(c34)C[C@H]21 [Compound 8]
Resp: 108.26

Req: Field: 5-HT2C % Act @ Max Dose (human 5-HT2C receptor (Homo sapiens (Human))). Entry: CC[C@@H](C)NC(=O)[C@H]1C=C2c3cccc4[nH]cc(c34)C[C@H]2N(CC)C1 [Compound 5a]
Resp: 99.4405

* * *

- Test system: C57BL/6 mice
- run-description: Mouse head twitch response (HTR) assay
- Assay type: in vivo
- run-parameters: mouse HTR, SC, 20 min observation
measured-quantity: # HTR at Most Efficacious Dose
Provide a numeric answer; units are not to be included.

Check out these entries, answers already filled in.
CC[C@@H](C)NC(=O)[C@@H]1C=C2c3cccc4[nH]cc(c34)C[C@H]2N(C)C1 :: 13.5
CCCN1C[C@H](C(=O)N[C@H](C)CC)C=C2c3cccc4[nH]cc(c34)C[C@H]21 :: 27.0
CC[C@@H](C)NC(=O)[C@@H]1C=C2c3cccc4[nH]cc(c34)C[C@H]2N(CC)C1 :: 17.667
CCCN1C[C@H](C(=O)N(CC)CC)C=C2c3cccc4[nH]cc(c34)C[C@H]21 :: 19.5

Now consider the entry below.
Req: Test system C57BL/6 mice; read-out # HTR at Most Efficacious Dose; what value for `CCN(CC)C(=O)[C@@H]1C=C2c3cccc4[nH]cc(c34)C[C@H]2N(Cc2ccccc2OC)C1` ?
Resp: 6.5

* * *

- study-system: Alpha2A receptor (Homo sapiens (Human), UniProt P08913)
- Sequence (P08913 whole entry, looked up): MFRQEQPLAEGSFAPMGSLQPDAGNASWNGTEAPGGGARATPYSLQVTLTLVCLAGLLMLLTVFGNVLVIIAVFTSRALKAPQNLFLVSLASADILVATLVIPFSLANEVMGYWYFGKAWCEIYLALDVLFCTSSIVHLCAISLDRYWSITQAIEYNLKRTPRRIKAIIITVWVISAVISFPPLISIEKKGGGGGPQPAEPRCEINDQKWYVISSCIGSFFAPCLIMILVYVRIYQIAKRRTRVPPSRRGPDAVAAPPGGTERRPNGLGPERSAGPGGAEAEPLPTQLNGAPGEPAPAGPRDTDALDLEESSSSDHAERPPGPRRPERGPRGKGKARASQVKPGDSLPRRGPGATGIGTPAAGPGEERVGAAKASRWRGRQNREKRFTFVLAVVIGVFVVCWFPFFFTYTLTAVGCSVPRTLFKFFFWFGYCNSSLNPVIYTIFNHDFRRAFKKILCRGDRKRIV
- run-description: FLIPR Ca^2+ flux agonist assay at Alpha2A
- Assay type: cell-based
measured-quantity: Alpha 2A % Act @ Max Dose (%)
Numeric only. Scale: %

CCN(CC)C(=O)[C@@H]1C=C2c3cccc4[nH]cc(c34)C[C@H]2N(CCc2ccccc2OC)C1 :: 14.18

Req: What value of Alpha 2A % Act @ Max Dose has been recorded for this entry: `CCCN1C[C@H](C(=O)N(CC)CC)C=C2c3cccc4[nH]cc(c34)C[C@H]21`
Resp: 58.3

Req: Requested read-out: Alpha 2A % Act @ Max Dose. Entry: `CCCN1C[C@H](C(=O)N[C@H](C)CC)C=C2c3cccc4[nH]cc(c34)C[C@H]21`
Resp: 96.82

* * *

In this section, each of the molecules is paired with its reported half-life at 1 μM.
- run-description: Metabolic stability in mouse liver microsomes (MLM)
- Type: in vitro ADME
- run-parameters: mouse, pooled mouse liver microsomes, pH 7.4, MLM (CD-1), NADPH
- Text: MLM Stability Pooled MLM from CD-1 mice (BIOIVT M00501) were used.
Give the quantity in min, number only.

# count of solved cases: 5
CCN(CC)C(=O)[C@@H]1C=C2c3cccc4[nH]cc(c34)C[C@H]2N(CC2CC2)C1 :: 3.7
CCCN1C[C@H](C(=O)N[C@H](C)CC)C=C2c3cccc4[nH]cc(c34)C[C@H]21 :: 1.6
CC[C@@H](C)NC(=O)[C@H]1C=C2c3cccc4[nH]cc(c34)C[C@H]2N(C)C1 :: 1.6
C=CCN1C[C@@H](C(=O)N[C@H](C)CC)C=C2c3cccc4[nH]cc(c34)C[C@H]21 :: 0.8
CCCN1C[C@H](C(=O)N2[C@@H](C)C[C@@H]2C)C=C2c3cccc4[nH]cc(c34)C[C@H]21 :: 0.8

Req: Which measured half-life at 1 μM value corresponds to `CCN(CC)C(=O)[C@H]1C=C2c3cccc4[nH]cc(c34)C[C@H]2N(CCCF)C1` ?
Resp: 1.78

* * *

- study-system: 5-HT2A receptor (Homo sapiens (Human), UniProt P28223)
- Format: cell-based
- run-parameters: beta-arrestin recruitment
measured-quantity: agonist type in the 5-HT2A arrestin recruitment assay, in words

Below: 6 compounds and their reported agonist type in the 5-HT2A arrestin recruitment assay, in words.
CCN(CC)C(=O)[C@@H]1C=C2c3cccc4[nH]cc(c34)C[C@H]2N(Cc2ccccc2OC)C1 [Compound 10] :: partial agonists
CCC(CC)NC(=O)[C@@H]1C=C2c3cccc4[nH]cc(c34)C[C@H]2N(C)C1 [Int14] :: partial agonists
CCCN1C[C@H](C(=O)N[C@H](C)CC)C=C2c3cccc4[nH]cc(c34)C[C@H]21 [Compound 3] :: full agonists
CCN(CC)C(=O)[C@@H]1C=C2c3cccc4[nH]cc(c34)C[C@H]2N(C)C1 [LSD, lysergic acid diethylamide, reference compound] :: partial agonists
CCN(CC)C(=O)[C@@H]1C=C2c3cccc4[nH]cc(c34)C[C@H]2N(CCc2ccccc2OC)C1 [Compound 11] :: partial agonists
CCCN1C[C@H](C(=O)N2[C@@H](C)C[C@@H]2C)C=C2c3cccc4[nH]cc(c34)C[C@H]21 [Compound 4] :: full agonists

Req: Please provide the recorded agonist type in the 5-HT2A arrestin recruitment assay, in words for CCCN1C[C@H](C(=O)N(CC)CC)C=C2c3cccc4[nH]cc(c34)C[C@H]21 [Compound 1] , tested on 5-HT2A receptor (Homo sapiens (Human), UniProt P28223).
Resp: full agonists

* * *

- study-system: 5-HT2A receptor (Homo sapiens (Human), UniProt P28223)
- Format: cell-based
- run-parameters: beta-arrestin recruitment
- Method: The degree of arrestin bias varied substantially across the other compounds tested as well. Arrestin Functional Assay at 5-HT2A. Recruitment of beta-arrestin was determined using a PathHunter assay at Eurofins DiscoverX (Fremont, CA) according to their standard protocols. […] This interaction leads to an increase in enzyme activity that can be measured using chemiluminescent PathHunter Detection Reagents. […]
measured-quantity: 5-HT2A Arrestin % Act @ Max Dose (%)
Numbers only here, please. The scale is %.

CCN(CC)C(=O)[C@H]1C=C2c3cccc4[nH]cc(c34)C[C@H]2N(CCCF)C1 :: 83.328
CC[C@@H](C)NC(=O)[C@H]1C=C2c3cccc4[nH]cc(c34)C[C@H]2N(CC)C1 :: 62.444
CCN(CC)C(=O)[C@@H]1C=C2c3cccc4[nH]cc(c34)C[C@H]2N(CCCF)C1 :: 114.55
CC[C@@H](C)NC(=O)[C@H]1C=C2c3cccc4[nH]cc(c34)C[C@H]2N(C)C1 :: 35.52

Req: Reported 5-HT2A Arrestin % Act @ Max Dose for `C=CCN1C[C@H](C(=O)N[C@H](C)CC)C=C2c3cccc4[nH]cc(c34)C[C@H]21` : what is it?
Resp: 112.42

Req: So what does the record say about 5-HT2A Arrestin % Act @ Max Dose for `CCCN1C[C@H](C(=O)NC(CC)CC)C=C2c3cccc4[nH]cc(c34)C[C@H]21` ?
Resp: 102.75
